Hey, just so you know, these numbers are from patent EP2945947B1.

# Test: Aqueous solubility in buffered solutions, HPLC (Example 2)
# Format: physicochemical
# Condition: sodium phosphate buffer in water for injection/5% dextrose, kinetic from dmso stock, pH 7.4, 75 mM sodium phosphate, ambient temperature, read-out: pH 7.4 aqueous solubility
Readout name: solubility kinetic at 24 h (µg/mL)
Quick reminder: number only, in µg/mL, skip the unit.

Completed entries (count: 3):
C[C@@H](C(=O)Nc1cncc(-c2cnc(N3CCC[C@H]3C(F)(F)F)nc2)n1)n1cnc2c1c(=O)n(C)c(=O)n2C ... 5
C[C@@H](C(=O)Nc1cncc(-c2cnc(N3CCCC3(C)C)nc2)n1)n1cnc2c1c(=O)n(C)c(=O)n2C ... 6
C[C@H]1CCCN1c1ncc(-c2cncc(NC(=O)[C@H](C)n3cnc4c3c(=O)n(C)c(=O)n4C)n2)cn1 ... 38

Next compound, please.
For the compound C[C@@H](C(=O)Nc1cccc(-c2cnc(N3CCC[C@H]3C(F)(F)F)nc2)n1)n1cnc2c1c(=O)n(C)c(=O)n2C , give its measured solubility kinetic at 24 h value.
44
